Reported Ki for target or system hCB2 receptor (Homo sapiens), by entry.
Give bare numbers, in nM.

A selection of reference data follows.
- COMPOUND: "C[C@H](/C=C\\C/C=C\\C/C=C\\CCCC(=O)N[C@H](C)CO)/C=C\\CCCCC(F)(F)F [Compound 12]"
  Ki, nM: 3.4
- COMPOUND: "C[C@H](/C=C\\C/C=C\\C/C=C\\CCCC(=O)N[C@H](C)CO)/C=C\\CCCCCBr [Compound 15]"
  Ki, nM: 5.3

Dear colleague, could you please provide Ki for the compounds listed below?
1. C[C@H](/C=C\C/C=C\C/C=C\CCCC(=O)N[C@H](C)CO)/C=C\CCCCCC#N [Compound 16a]
2. C[C@H](/C=C\C/C=C\C/C=C\CCCC(=O)N[C@H](C)CO)/C=C\CCCCCO[N+](=O)[O-] [Compound 16b]
3. C[C@H](/C=C\C/C=C\C/C=C\CCCC(=O)N[C@H](C)CO)/C=C\CCCCCF [Compound 21]

Result:
1. 2.2
2. 10.9
3. 22.2
